Property: pIC50; scope: individual compounds
# Tgt: Bile acid receptor (Homo sapiens, UniProt Q96RI1)
# Sequence (Q96RI1 whole entry): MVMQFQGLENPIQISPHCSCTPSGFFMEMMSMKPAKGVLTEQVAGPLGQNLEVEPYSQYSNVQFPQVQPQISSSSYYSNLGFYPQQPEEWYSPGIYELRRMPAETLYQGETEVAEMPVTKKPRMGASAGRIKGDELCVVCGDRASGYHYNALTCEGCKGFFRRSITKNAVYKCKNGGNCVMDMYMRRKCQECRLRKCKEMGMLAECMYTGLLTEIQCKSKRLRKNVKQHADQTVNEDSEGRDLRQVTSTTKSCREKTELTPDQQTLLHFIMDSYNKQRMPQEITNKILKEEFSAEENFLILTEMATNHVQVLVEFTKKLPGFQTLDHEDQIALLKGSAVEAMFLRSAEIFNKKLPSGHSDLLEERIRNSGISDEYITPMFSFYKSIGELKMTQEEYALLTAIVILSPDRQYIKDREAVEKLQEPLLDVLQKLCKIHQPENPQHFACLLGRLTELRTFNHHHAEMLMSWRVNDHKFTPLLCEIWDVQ
# Experimental Protocol: Antagonist activity at human FXR expressed in CV-1 cells assessed as inhibition of CDCA-induced transactivation after 24 hrs by luciferase reporter gene assay
pIC50 (log units): -log10 of the concentration in mol/L.

CC(C)=CCC/C(=C/CC/C(C)=C/CC[C@]1(C)C=Cc2cc(O)cc(C)c2O1)C(=O)O [(R)-SARGACHROMENOL]
5.05

Enter reported pIC50 observed with Bile acid receptor (Homo sapiens, UniProt Q96RI1) for CC(C)=CCCC1=C[C@@H](C/C(C)=C/CC[C@@]2(C)C=Cc3cc(O)cc(C)c3O2)OC1=O [TUBERATOLIDE B]
5.82

Check CC(=O)CC/C=C(\C)C[C@@H]1C=C(CCC=C(C)C)C(=O)O1 [TUBERATOLIDE A] too.
5.41

Do the same for CC(C)=CCCC1=C[C@@H](C/C(C)=C/CC/C(C)=C/CC2=CC(=O)C=C(C)C2=O)OC1=O [YEZOQUINOLIDE] please
5.23

Please answer likewise for CC(C)=CCCC1=C[C@@H](C/C(C)=C/CC[C@]2(C)C=Cc3cc(O)cc(C)c3O2)OC1=O [2'-EPI-TUBERATOLIDE B]
5.60

Same lookup for CC(C)=CCC/C(=C/CC/C(C)=C/CC[C@@]1(C)C=Cc2cc(O)cc(C)c2O1)C(=O)O [(S)-SARGACHROMENOL] , please.
4.77

Cited source for all entries: ChEMBL document CHEMBL1667725
